Just for reference, the supplement of paper PMC6555819 is where these values come from.

PBM binding z-score values by entry
system: RXRa homodimer (NR concentration 180 nM); assay: PBM binding z-score (relative to random genomic background probes); higher = stronger binding; sequences stand for … in GC…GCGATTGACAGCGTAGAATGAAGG

# sequence-string, tested-target, PBM binding z-score
measured = [
    ("CTCGAAAGGTCTGTTGAGGTGAGTATACGGATAA", "RXRa homodimer (NR concentration 180 nM)", 0.536),
    ("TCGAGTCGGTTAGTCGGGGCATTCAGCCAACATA", "RXRa homodimer (NR concentration 180 nM)", -0.48),
    ("ACAGACAGGTGATGAAGGTAGCTCAGGCTATCAT", "RXRa homodimer (NR concentration 180 nM)", 0.147),
    ("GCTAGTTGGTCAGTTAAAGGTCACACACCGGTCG", "RXRa homodimer (NR concentration 180 nM)", 5.12),
    ("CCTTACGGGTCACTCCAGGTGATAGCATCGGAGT", "RXRa homodimer (NR concentration 180 nM)", 4.45),
    ("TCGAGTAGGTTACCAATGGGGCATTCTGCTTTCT", "RXRa homodimer (NR concentration 180 nM)", 0.447),
    ("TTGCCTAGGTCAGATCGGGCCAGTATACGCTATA", "RXRa homodimer (NR concentration 180 nM)", 1.51),
    ("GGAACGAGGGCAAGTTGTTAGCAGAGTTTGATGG", "RXRa homodimer (NR concentration 180 nM)", 0.957),
    ("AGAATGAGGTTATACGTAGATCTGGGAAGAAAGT", "RXRa homodimer (NR concentration 180 nM)", 1.94),
    ("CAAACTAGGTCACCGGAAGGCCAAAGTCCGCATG", "RXRa homodimer (NR concentration 180 nM)", 3.59),
    ("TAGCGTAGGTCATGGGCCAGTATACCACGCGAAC", "RXRa homodimer (NR concentration 180 nM)", 4.73),
    ("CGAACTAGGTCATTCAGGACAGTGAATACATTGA", "RXRa homodimer (NR concentration 180 nM)", 2.8),
]

---

system: LXRb homodimer (NR concentration 270 nM); assay: PBM binding z-score (relative to random genomic background probes); higher = stronger binding; sequences stand for … in GC…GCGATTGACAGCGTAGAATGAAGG

# sequence-string, PBM binding z-score
measured = [
    ("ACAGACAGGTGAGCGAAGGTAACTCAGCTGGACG", -0.759),
    ("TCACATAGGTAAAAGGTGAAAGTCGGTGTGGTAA", -0.337),
    ("TCTTGTAGATCAATAGAGGGTAAGAAAGTGCGCT", 0.175),
    ("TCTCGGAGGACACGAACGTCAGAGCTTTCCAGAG", -1.31),
    ("CCGACTGGGGCAGAAAGGTTACCATCCCATCCGG", -0.971),
    ("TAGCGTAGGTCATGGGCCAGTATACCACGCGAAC", -0.458),
]

---

test system: PPARg:RXRa (NR concentration 180 nM, RXRa partner concentration 90 nM); experiment: PBM binding z-score (relative to random genomic background probes); higher = stronger binding; sequences stand for … in GC…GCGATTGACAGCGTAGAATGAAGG
PBM binding z-score values by entry

# sequence-string, tested-target, PBM binding z-score
rows = [
    ("CCTACTGGGCCAAAAAGCTCATTGATGCCGATAA", "PPARg:RXRa (NR concentration 180 nM, RXRa partner concentration 90 nM)", 0.473),
    ("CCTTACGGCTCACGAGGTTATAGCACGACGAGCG", "PPARg:RXRa (NR concentration 180 nM, RXRa partner concentration 90 nM)", 0.887),
    ("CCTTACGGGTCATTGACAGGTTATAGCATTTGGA", "PPARg:RXRa (NR concentration 180 nM, RXRa partner concentration 90 nM)", 3.6),
    ("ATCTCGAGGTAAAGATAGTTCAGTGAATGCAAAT", "PPARg:RXRa (NR concentration 180 nM, RXRa partner concentration 90 nM)", 0.145),
    ("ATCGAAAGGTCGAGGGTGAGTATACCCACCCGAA", "PPARg:RXRa (NR concentration 180 nM, RXRa partner concentration 90 nM)", 3.72),
    ("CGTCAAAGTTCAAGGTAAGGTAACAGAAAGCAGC", "PPARg:RXRa (NR concentration 180 nM, RXRa partner concentration 90 nM)", 4.19),
    ("ATATGTAGGTTAAGGGTCTTTCAGGTTGGTTCGC", "PPARg:RXRa (NR concentration 180 nM, RXRa partner concentration 90 nM)", 8.46),
    ("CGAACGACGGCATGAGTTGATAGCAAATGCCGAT", "PPARg:RXRa (NR concentration 180 nM, RXRa partner concentration 90 nM)", 0.598),
    ("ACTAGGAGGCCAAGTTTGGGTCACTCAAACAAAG", "PPARg:RXRa (NR concentration 180 nM, RXRa partner concentration 90 nM)", 0.296),
    ("ATCGAAAGGTCGTGAGGTGAGTATGCAGAAAGGC", "PPARg:RXRa (NR concentration 180 nM, RXRa partner concentration 90 nM)", 3.67),
    ("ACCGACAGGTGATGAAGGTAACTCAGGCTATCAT", "PPARg:RXRa (NR concentration 180 nM, RXRa partner concentration 90 nM)", 0.492),
    ("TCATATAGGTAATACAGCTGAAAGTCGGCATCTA", "PPARg:RXRa (NR concentration 180 nM, RXRa partner concentration 90 nM)", 0.839),
]

---

test system: VDR homodimer (NR concentration 270 nM); assay: PBM binding z-score (relative to random genomic background probes); higher = stronger binding; sequences stand for … in GC…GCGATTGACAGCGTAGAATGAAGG
Threshold check on PBM binding z-score: at or above 1 gives t, strictly below gives f.

# sequence-string, group
rows = [
    ("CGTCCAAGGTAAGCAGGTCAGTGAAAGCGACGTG", "f"),
    ("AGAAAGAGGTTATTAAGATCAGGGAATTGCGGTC", "f"),
    ("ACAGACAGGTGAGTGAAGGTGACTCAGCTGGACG", "f"),
    ("AATACAGGGTCACTAGGACAGAGTAGGTACGAAT", "t"),
    ("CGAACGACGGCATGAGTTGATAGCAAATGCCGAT", "f"),
    ("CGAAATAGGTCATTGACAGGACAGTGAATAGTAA", "t"),
    ("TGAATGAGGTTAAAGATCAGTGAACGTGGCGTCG", "f"),
    ("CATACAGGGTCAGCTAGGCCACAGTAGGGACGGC", "t"),
    ("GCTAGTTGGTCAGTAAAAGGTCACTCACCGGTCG", "t"),
    ("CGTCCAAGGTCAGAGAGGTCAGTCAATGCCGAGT", "t"),
    ("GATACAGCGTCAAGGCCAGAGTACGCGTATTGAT", "f"),
    ("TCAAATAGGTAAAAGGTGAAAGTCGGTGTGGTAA", "f"),
    ("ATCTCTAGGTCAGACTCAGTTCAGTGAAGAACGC", "t"),
    ("TCTAGCAGGCCAGAGGGTTACTCAAGAGGTACGG", "f"),
    ("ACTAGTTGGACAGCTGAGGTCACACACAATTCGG", "t"),
    ("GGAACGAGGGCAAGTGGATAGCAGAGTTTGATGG", "t"),
    ("CCTAGTTGGTCAGGAGATCACACACCGGATATGA", "f"),
    ("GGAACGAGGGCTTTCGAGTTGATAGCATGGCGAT", "f"),
    ("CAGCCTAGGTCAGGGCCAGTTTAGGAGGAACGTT", "f"),
    ("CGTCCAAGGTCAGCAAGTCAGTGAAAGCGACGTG", "t"),
    ("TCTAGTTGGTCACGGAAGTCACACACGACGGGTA", "f"),
    ("TCGAGTTGGTCACGGAGGTCACACACGACGGGTA", "t"),
    ("GGAACGAGGGCAAGTTGATAGCGGAGTTTGATGG", "t"),
    ("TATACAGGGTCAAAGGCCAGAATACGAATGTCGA", "t"),
    ("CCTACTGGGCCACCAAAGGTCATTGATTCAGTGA", "t"),
    ("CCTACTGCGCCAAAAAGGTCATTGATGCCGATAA", "t"),
]

---

system: RARg:RXRa (NR concentration 270 nM, RXRa partner concentration 90 nM); assay: PBM binding z-score (relative to random genomic background probes); higher = stronger binding; sequences stand for … in GC…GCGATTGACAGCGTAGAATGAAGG
quantity: PBM binding z-score

# sequence-string, endpoint-result
measured = [
    ("CAAACTACGTCAAAGGTCAAAGTCGAGCCAACCA", 6.1),
    ("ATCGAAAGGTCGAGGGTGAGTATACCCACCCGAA", 4.14),
    ("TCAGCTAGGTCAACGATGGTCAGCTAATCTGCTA", 3.89),
    ("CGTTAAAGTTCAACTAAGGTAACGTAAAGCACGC", 5.55),
    ("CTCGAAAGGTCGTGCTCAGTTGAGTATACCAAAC", 4.35),
    ("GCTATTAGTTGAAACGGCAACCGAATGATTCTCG", -0.122),
    ("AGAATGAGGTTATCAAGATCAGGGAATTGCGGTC", 1.5),
    ("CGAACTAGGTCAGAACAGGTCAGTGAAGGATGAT", 3.47),
    ("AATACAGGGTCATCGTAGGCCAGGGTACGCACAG", 5.54),
    ("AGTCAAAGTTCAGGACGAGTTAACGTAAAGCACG", 4.4),
    ("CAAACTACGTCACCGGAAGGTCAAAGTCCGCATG", 4.01),
    ("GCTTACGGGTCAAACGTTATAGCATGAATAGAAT", 4.8),
]
